Molecular target: T1, recombinant mature dimeric myostatin (human and mouse (mature sequences 100% …, UniProt O08689 268-376))
T1 construct: also called GDF-8; mature myostatin
T1 sequence: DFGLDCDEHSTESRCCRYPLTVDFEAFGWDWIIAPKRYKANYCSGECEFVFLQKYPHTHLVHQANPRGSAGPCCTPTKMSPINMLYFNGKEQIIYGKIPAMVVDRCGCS
Assay: myostatin competition ELISA, biotinylated myostatin on streptavidin, competitor 10B3
OUTCOME MEASURE: rank among the five most potent, top (1) to bottom (5) (rank)
Output spec: scalar in rank, unitless text.

Solved entries:
Q) Give me measured rank among the five most potent, top (1) to bottom (5), please, for this binder: H2L2-C91S_P100B_I (antibody, V domains shown) VH: QVQLVQSGAEVKKPGASVKVSCKASGYSFTGYFMHWVRQAPGQGLEWMGNIYPYNGVSNYNQRFKARVTMTTDTSTSTAYMELRSLRSDDTAVYYCARRYYYGTGIADWYFDVWGQGTLVTVSS VL: DIQMTQSPSSLSASVGDRVTITCKASQDINSYLSWFQQKPGKAPKSLIYRANRLVDGVPSKFSGSGSGTDYTLTISSLQPEDFATYYCLQSDEFPLTFGQGTKLEIKR
A) 3

Q) Provide measured rank among the five most potent, top (1) to bottom (5) value, entry: H2L2-C91S_V102N (antibody, V domains shown) VH: QVQLVQSGAEVKKPGASVKVSCKASGYSFTGYFMHWVRQAPGQGLEWMGNIYPYNGVSNYNQRFKARVTMTTDTSTSTAYMELRSLRSDDTAVYYCARRYYYGTGPADWYFDNWGQGTLVTVSS VL: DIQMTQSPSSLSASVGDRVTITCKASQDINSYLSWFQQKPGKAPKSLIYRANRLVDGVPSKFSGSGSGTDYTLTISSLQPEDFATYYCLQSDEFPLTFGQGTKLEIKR
A) 4

Q) Identify rank among the five most potent, top (1) to bottom (5) associated with the binder H2L2-C91S_Y96L (antibody, V domains shown) VH: QVQLVQSGAEVKKPGASVKVSCKASGYSFTGYFMHWVRQAPGQGLEWMGNIYPYNGVSNYNQRFKARVTMTTDTSTSTAYMELRSLRSDDTAVYYCARRLYYGTGPADWYFDVWGQGTLVTVSS VL: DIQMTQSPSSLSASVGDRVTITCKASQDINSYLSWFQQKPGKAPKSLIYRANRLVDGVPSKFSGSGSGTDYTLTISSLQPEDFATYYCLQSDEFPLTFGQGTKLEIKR
A) 5

Further cases:
Q) Give me measured rank among the five most potent, top (1) to bottom (5), please, for this binder: H2L2-C91S_V102S (antibody, V domains shown) VH: QVQLVQSGAEVKKPGASVKVSCKASGYSFTGYFMHWVRQAPGQGLEWMGNIYPYNGVSNYNQRFKARVTMTTDTSTSTAYMELRSLRSDDTAVYYCARRYYYGTGPADWYFDSWGQGTLVTVSS VL: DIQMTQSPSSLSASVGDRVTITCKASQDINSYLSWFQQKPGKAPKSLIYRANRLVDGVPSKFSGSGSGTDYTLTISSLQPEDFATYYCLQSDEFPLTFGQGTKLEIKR
A) 1

The values you see were collected from patent US20130142788A1.
